test_details: Cytotoxicity screening (MTS), SAEC
Format: cell-based
assay_setup: human, small airway epithelial cells (SAEC)
Would you mind telling me the reported IC50 at 24 h of each entry?

>  <smiles_input>
COc1cc2sc(CNC(=O)C3(CC(=O)O)Cc4cc(F)c(F)cc4C3)nc2cc1OCCC[N+](C)(CCO)CCO

>  <IC50 at 24 h>
> 100 µM

$$$$

Okay, next one:
Recorded result, `COc1cc2sc(CNC(=O)C3(CC(=O)O)Cc4ccccc4C3)nc2cc1OCCC[N+](C)(C)C` , IC50 at 24 h: > 100 µM

----------
Lab note: IC50 readings collected with MMP-2 (Homo sapiens) for the following compounds.
Sequence (P08253 110-660): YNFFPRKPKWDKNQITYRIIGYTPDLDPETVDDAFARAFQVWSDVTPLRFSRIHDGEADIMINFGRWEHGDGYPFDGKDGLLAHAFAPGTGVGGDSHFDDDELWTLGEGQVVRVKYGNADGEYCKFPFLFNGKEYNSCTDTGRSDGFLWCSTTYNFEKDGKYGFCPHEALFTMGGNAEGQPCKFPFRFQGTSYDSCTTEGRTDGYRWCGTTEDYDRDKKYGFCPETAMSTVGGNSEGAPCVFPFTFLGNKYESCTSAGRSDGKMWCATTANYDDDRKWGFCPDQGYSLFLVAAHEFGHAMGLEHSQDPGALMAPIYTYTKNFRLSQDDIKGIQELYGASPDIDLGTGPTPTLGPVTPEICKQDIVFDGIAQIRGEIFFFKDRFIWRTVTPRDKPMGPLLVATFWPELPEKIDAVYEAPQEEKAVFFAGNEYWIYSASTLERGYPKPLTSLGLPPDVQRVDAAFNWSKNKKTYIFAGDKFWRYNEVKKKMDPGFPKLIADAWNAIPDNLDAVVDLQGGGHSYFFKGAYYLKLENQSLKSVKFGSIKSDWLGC

>  <smiles_input>
COc1cc2sc(CNC(=O)C3(CC(=O)O)Cc4cc(F)c(F)cc4C3)nc2cc1OCCC[N+](C)(CCO)CCO

>  <IC50>
> 200 µM

$$$$

Consider now this further compound.
Kindly note the recorded IC50 for `COc1cc2sc(CNC(=O)C3(CC(=O)O)Cc4ccccc4C3)nc2cc1OCCC[N+](C)(C)C` , which is > 200 µM

----------
assay_target: human neutrophil elastase (HNE) (Homo sapiens)
Sequence (P08246 30-267): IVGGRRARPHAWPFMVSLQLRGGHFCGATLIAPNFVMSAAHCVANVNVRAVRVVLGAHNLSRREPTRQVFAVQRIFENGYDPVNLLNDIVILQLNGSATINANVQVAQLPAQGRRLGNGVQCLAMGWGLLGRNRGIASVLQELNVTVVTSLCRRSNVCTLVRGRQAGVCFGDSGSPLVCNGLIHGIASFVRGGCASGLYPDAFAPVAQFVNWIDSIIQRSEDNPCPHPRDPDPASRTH
test_details: HNE selectivity assay
assay_readout: IC50

>  <compound>
COc1cc2sc(CNC(=O)C3(CC(=O)O)Cc4ccccc4C3)nc2cc1OCCC[N+](C)(C)C [Compound 12]

>  <assay_readout>
IC50

>  <endpoint_result>
> 200 µM

$$$$

Read the next record carefully.
Notebook: COc1cc2sc(CNC(=O)C3(CC(=O)O)Cc4cc(F)c(F)cc4C3)nc2cc1OCCC[N+](C)(CCO)CCO [Compound 16] , IC50 read as > 200 µM

----------
Assay system MMP-9 (Homo sapiens, UniProt P14780); read-out recorded as pIC50.
pIC50: −log10 of the molar value.

>  <compound>
COc1cc2sc(CNC(=O)C3(CC(=O)O)Cc4cc(F)c(F)cc4C3)nc2cc1OCCC[N+](C)(CCO)CCO [Compound 16]

>  <pIC50>
< 3.70

$$$$

We now examine a further compound.
Entry COc1cc2sc(CNC(=O)C3(CC(=O)O)Cc4ccccc4C3)nc2cc1OCCC[N+](C)(C)C [Compound 12] ; assay system MMP-9 (Homo sapiens, UniProt P14780); pIC50 recorded at < 3.70

----------
assay_target: LasB (P. aeruginosa PAO1 culture supernatant) (Pseudomonas aeruginosa, UniProt P14756)
Construct: The mature LasB protein is a 33 kDa metalloprotease, which is secreted from P. aeruginosa; endogenous in cells; host or cells: P. aeruginosa PAO1 culture supernatant, filtered and dialyzed
test_details: Elastin Congo Red (ECR) assay, elastin hydrolysis by dialyzed PAO1 culture supernatant
Type: biochemical
assay_setup: 25 μM inhibitor
Binary classification by Elastin hydrolysis @ 25 μM (% inh), with 70 % inh as an inclusive lower bound for Y; all other cases are N.

Answered cases to consult:
>  <smiles_input>
COc1ccc2sc(CNC(=O)C3(CC(=O)O)Cc4ccccc4C3)nc2c1

>  <group_label>
N

$$$$
>  <smiles_input>
O=C(O)CC1(C(=O)NCc2nc3cc4c(cc3s2)OCO4)Cc2ccccc2C1

>  <group_label>
Y

$$$$
>  <smiles_input>
O=C(O)CC1(C(=O)NCc2nc3cc(Cl)ccc3s2)Cc2ccccc2C1

>  <group_label>
N

$$$$
>  <smiles_input>
O=C(O)CC1(C(=O)NCc2nc3ccccc3s2)Cc2cc(F)c(F)cc2C1

>  <group_label>
N

$$$$

Task: Could you verify whether the entry `COc1cc2sc(CNC(=O)C3(CC(=O)O)Cc4ccccc4C3)nc2cc1OCCC[N+](C)(C)C` shows Elastin hydrolysis @ 25 μM (% inh) of no less than 70 % inh?
Result: N

Task: Is reported Elastin hydrolysis @ 25 μM (% inh) greater than or equal to 70 % inh here: `COc1cc2sc(CNC(=O)C3(CC(=O)O)Cc4cc(F)c(F)cc4C3)nc2cc1OCCC[N+](C)(CCO)CCO`
Result: Y

Task: // inclusive: Elastin hydrolysis @ 25 μM (% inh) at least 70 % inh? input: `COc1cc2sc(CNC(=O)C3(CC(=O)O)Cc4ccccc4C3)nc2cc1OCC1CC[N+](C)(C)CC1`
Result: N

----------
Could you please report measured C0 for the items listed next?
test_details: Mouse pharmacokinetics, plasma
Assay type: in vivo
assay_setup: female, ICR (CD-1), plasma, single 10 mg/kg IV dose
Method: The PK parameters of compounds 12 and 16 were investigated in both plasma and lung epithelial lining fluid (ELF) after intravenous (IV) administration of compounds at 10 mg/kg in mice (Figure 4 and Table 5). […] Unrestrained, nonanesthetized mice (Female ICR (CD-1); Age 5–6 weeks; Size 22 ± 2 g; specific pathogen-free (SPF)) were injected IV with test article formulations via the tail vein. […] Plasma and BALF samples were analyzed by LC-MS/MS (AB SCIEX API 3000 mass spectrometer). […]
Numbers only, in µg/mL.

>  <smiles_input>
COc1cc2sc(CNC(=O)C3(CC(=O)O)Cc4ccccc4C3)nc2cc1OCCC[N+](C)(C)C

>  <C0, µg/mL>
92.2

$$$$

Next item in the queue.
Item: `COc1cc2sc(CNC(=O)C3(CC(=O)O)Cc4cc(F)c(F)cc4C3)nc2cc1OCCC[N+](C)(CCO)CCO` | C0: 176

----------
assay_target: rabbit angiotensin-converting enzyme (ACE) (Oryctolagus cuniculus, UniProt P12822)
Construct: purchased Sigma
Sequence (P12822 34-1310): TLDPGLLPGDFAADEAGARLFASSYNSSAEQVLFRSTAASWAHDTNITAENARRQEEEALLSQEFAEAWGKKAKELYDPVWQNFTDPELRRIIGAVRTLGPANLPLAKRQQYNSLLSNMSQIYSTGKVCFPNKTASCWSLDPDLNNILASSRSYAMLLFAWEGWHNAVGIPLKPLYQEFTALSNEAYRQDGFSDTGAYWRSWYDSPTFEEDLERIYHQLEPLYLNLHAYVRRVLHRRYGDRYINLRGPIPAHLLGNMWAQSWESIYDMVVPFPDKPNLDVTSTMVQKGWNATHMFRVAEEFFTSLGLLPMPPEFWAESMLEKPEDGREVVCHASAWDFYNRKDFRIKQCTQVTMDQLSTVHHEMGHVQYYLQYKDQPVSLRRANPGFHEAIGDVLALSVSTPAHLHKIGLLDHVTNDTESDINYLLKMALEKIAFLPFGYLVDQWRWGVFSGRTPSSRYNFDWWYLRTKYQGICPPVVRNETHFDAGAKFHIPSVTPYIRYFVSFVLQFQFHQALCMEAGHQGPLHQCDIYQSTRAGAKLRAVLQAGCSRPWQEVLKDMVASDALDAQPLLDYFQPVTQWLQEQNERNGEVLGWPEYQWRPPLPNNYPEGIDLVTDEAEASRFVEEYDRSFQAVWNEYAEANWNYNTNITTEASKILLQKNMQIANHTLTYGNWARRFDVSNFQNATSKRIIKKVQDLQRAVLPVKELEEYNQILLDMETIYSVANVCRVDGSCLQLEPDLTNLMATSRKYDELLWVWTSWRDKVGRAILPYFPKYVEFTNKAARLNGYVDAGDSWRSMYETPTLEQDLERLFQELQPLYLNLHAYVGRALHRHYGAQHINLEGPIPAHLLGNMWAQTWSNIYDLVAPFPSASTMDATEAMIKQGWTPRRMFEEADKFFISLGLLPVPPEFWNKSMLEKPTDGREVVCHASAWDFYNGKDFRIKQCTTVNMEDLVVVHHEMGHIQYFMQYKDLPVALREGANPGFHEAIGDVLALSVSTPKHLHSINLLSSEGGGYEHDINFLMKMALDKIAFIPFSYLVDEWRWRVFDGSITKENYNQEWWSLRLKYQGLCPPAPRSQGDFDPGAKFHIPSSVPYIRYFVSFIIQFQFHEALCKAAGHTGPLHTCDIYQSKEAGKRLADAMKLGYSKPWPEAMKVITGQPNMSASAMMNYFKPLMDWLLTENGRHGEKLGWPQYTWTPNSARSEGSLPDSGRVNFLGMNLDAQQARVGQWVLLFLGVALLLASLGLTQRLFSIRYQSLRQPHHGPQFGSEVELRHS
test_details: ACE selectivity assay
Assay type: biochemical
assay_setup: rabbit ACE; read-out: selectivity IC50, ACE
pIC50: −log10 of the molar value.
assay_readout: pIC50

For reference, reported pIC50 for `COc1cc2sc(CNC(=O)C3(CC(=O)O)Cc4ccccc4C3)nc2cc1OCCC[N+](C)(C)C` stands at < 3.70

----------
assay_target: LasB Q102R, S241G, D244N, K282N, R471S (Pseudomonas aeruginosa, UniProt P14756, D244N/K282N/R471S/S241G)
Construct: Most changes were identified in the mature peptide, however some occurred in the propeptide domain; endogenous in cells
Sequence (P14756 198-498, looked up, stated change not applied): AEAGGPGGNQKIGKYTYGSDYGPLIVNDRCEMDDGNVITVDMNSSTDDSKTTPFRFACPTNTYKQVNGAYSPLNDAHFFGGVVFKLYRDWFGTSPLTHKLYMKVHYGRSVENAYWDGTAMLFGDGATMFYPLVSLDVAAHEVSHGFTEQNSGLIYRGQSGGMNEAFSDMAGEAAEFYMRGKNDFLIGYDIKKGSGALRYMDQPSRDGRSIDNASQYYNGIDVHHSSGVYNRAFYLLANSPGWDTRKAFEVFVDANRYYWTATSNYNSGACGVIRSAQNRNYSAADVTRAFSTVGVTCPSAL
test_details: LasB variant inhibition, culture supernatant: five substitutions
assay_readout: pIC50
Numbers only, as −log10 of the molar value.

>  <smiles_input>
COc1cc2sc(CNC(=O)C3(CC(=O)O)Cc4ccccc4C3)nc2cc1OCCC[N+](C)(C)C

>  <pIC50>
6.74

$$$$

Moving on to the next compound.
response.value for `COc1cc2sc(CNC(=O)C3(CC(=O)O)Cc4cc(F)c(F)cc4C3)nc2cc1OCCC[N+](C)(CCO)CCO` (field: pIC50) = 6.75

----------
assay_target: purified LasB (Pseudomonas aeruginosa, UniProt P14756)
Construct: The mature LasB protein is a 33 kDa metalloprotease, which is secreted from P. aeruginosa; host or cells: P. aeruginosa PAO1 (native secretion, culture supernatant)
test_details: LasB inhibition, fluorimetric Abz-AGLA-Nba hydrolysis assay with purified LasB
Assay type: biochemical
assay_readout: pIC50
Answers are plain numbers, as −log10 of the molar value.

Record excerpt, results attached:
>  <smiles_input>
O=C(O)CC1(C(=O)NCc2nc3cc4c(cc3s2)OCO4)Cc2ccccc2C1

>  <pIC50>
6.92

$$$$
>  <smiles_input>
COc1ccc2sc(CNC(=O)C3(CC(=O)O)Cc4ccccc4C3)nc2c1

>  <pIC50>
6.82

$$$$
>  <smiles_input>
CN1CCN(c2ccc3nc(CNC(=O)C4(CC(=O)O)Cc5ccccc5C4)sc3c2)CC1

>  <pIC50>
5.80

$$$$

Record `CN(C)CCOc1ccc2sc(CNC(=O)C3(CC(=O)O)Cc4ccccc4C3)nc2c1` / purified LasB (Pseudomonas aeruginosa, UniProt P14756), pIC50 recorded as 6.17

----------
test_details: Mouse pharmacokinetics, plasma
Format: in vivo
assay_setup: female, ICR (CD-1), plasma, single 10 mg/kg IV dose, read-out: plasma CL
I'd appreciate it if you could supply clearance values for the items below.
One number for each entry, in mL/min/kg.

>  <smiles_input>
COc1cc2sc(CNC(=O)C3(CC(=O)O)Cc4cc(F)c(F)cc4C3)nc2cc1OCCC[N+](C)(CCO)CCO

>  <quantity_unit>
mL/min/kg

>  <clearance>
0.3

$$$$

The reported clearance of the molecule `COc1cc2sc(CNC(=O)C3(CC(=O)O)Cc4ccccc4C3)nc2cc1OCCC[N+](C)(C)C` was 0.3

----------
test_details: Cytotoxicity screening (MTS), HepG2
Assay type: cell-based
assay_setup: human, HepG2 cells
Method: Bronchial smooth muscle cells (BSMC, Lonza CC-2576), small airway epithelial cells (SAEC, Lonza CC-2547), or HepG2 cells (ATCC HB-8065) were seeded in 96-well plates at a density of 25,000 per well. […] The reaction was stopped with 12.5 μL of 10% SDS, plates briefly shaken, and absorbance (490 nm) read using a Spectramax M5e plate reader (Molecular Devices). […]
assay_readout: IC50 at 24 h

>  <compound>
COc1cc2sc(CNC(=O)C3(CC(=O)O)Cc4cc(F)c(F)cc4C3)nc2cc1OCCC[N+](C)(CCO)CCO [Compound 16]

>  <IC50 at 24 h>
> 100 µM

$$$$

Next compound, please.
The reported value for COc1cc2sc(CNC(=O)C3(CC(=O)O)Cc4ccccc4C3)nc2cc1OCCC[N+](C)(C)C [Compound 12] in terms of IC50 at 24 h is > 100 µM
